Tested on: OVCAR-8 ovarian
Assay: NCI tumour cell line growth inhibition, 48 h
What TGI was measured for each of the following?

# return TGI for each item in the list
1. COc1cc2c(cc1OC)C(=O)/C(=C/c1ccc(O)cc1)CC2
2. S=P(N1CCCC1)(N1CC1)N1CC1

A:
1. > 10 µM
2. > 100 µM

Batch request: TGI for each of the following compounds.
1. CCOC(=O)CCC(NC(=O)OCc1ccccc1)C(=O)NC(CCC(=O)OCC)C(=O)NC(CCC(=O)OCC)C(=O)NNC(=O)OC(C)(C)C (configuration not stated)
2. COC(=O)[C@@H]1C=C[C@H](NC(C)=O)C1
3. Nc1ccc2c(c1)NC(=O)[C@@H]1CCCN1C2=O

A:
1: > 100 µM; 2: > 100 µM; 3: > 100 µM

* * *

Test system: DLD-1 colon
Experiment: NCI tumour cell line growth inhibition, 48 h
Readout name: TGI

1) COc1ccc2ccccc2c1CN1CCOCCOCCN(Cc2c(OC)ccc3ccccc23)CCOCCOCC1 : > 100 µM

For every record below, what is its TGI?
1. Clc1ccc2c(c1)[nH]c1c2nc2sccn21
2. CCCCCCCCCCCCCC(=O)NCC(OCC)OCC

A:
["> 100 µM", "> 100 µM"]

* * *

Tested on: KM12 colon
Experiment: NCI tumour cell line growth inhibition, 48 h
Readout name: TGI

Please review the following examples before continuing.
1. CC1=CC[C@](C)(O)[C@@]2(C)CC[C@H]3C(=C(C)C)C(=O)C[C@]3(C)C[C@H]12 : > 50 µM
2. C=C(CCOC)CCC1CCCCC(=C)[C@H]1O (some centres undefined) : > 100 µM

Hey, can you go through the list below and give me TGI for every item?
1. C[C@]12CCC(=O)C=C1CC[C@@H]1[C@@H]2[C@@H](O)C[C@@]2(C)[C@H]1CC[C@]2(O)C(=O)COC(=O)CCC1CCCC1
2. CCCCCCNC(=O)n1cc(F)c(=O)[nH]c1=O

A:
1: > 100 µM; 2: > 100 µM

* * *

Tested on: SW-620 colon
Assay: NCI tumour cell line growth inhibition, 48 h
Exercise: for every item that follows, state its recorded TGI.

1. CNC(=O)N(CCC#N)CCCN(C(=O)N(C)C)c1ccccc1 : > 100 µM
2. CCN(CC)C1Oc2cc3c(cc2C(c2cc(OC)c(OC)c(OC)c2)C1C)OCO3 (stereo not drawn) : > 63.1 µM

Next up:
Q: Entry CCCCCCCCCCCCCC(=O)NCC(OCC)OCC : reported TGI = ?
A: > 100 µM

* * *

System: HT29 colon
Assay: NCI tumour cell line growth inhibition, 48 h
Readout name: TGI

Recorded results for 3 compounds are shown here.
1. C=CC(OC(C)=O)c1ccc(OC(C)=O)cc1 (stereo unspecified) : 32.7 µM
2. C=CCc1ccccc1C1CC2(C(=O)OC)OC1C(C(=O)OC)=C2C(=O)OC (stereo unspecified) : > 10 µM
3. COc1ccccc1NC(=O)C1=C(C)NC(C)=C(C(=O)Nc2ccccc2OC)C1c1ccc(N(C)C)cc1 : > 100 µM

For every item below, please supply its TGI.
1. COc1ccc(/C=C\c2cc(OC)c(OC)c(OC)c2)c(NS(=O)(=O)c2ccc(Cl)cc2)c1O
2. CC1CN=C(c2ccc(-c3nc(-c4ccc(C5=NCC(C)N5)cc4)nc(N(C)C)n3)cc2)N1 (stereo unspecified)
3. CC1(O)CCC2(C)C(=O)C1(C)CCC21OCCO1 (stereo unspecified)

A:
["11.9 µM", "7.33 µM", "> 100 µM"]

Go through the items and report each one's TGI.
1. Clc1ccc2c(c1)C(N1CCNCC1)=Nc1ccccc1O2
2. CCCCCCNC(=O)Oc1ccc(/C(=C(/C)Cc2ccc(OC)cc2)c2ccc(OCCN(C)C)cc2)cc1
3. CC(C#N)N(CCc1ccccc1)C(=O)c1ccccc1 (stereo unspecified)
4. COC(=O)C1Cc2c([nH]c3ccccc23)C(c2ccccc2O)N1Cc1ccccc1 (stereo unspecified)
5. O=C(O)Cc1ccccc1CCc1ccccc1Cl
6. COc1cccc(C23CCCC(C2)N(C)CC3OC(=O)c2ccccc2)c1OC (stereo unspecified)
7. COc1cc2c3c(c1OC)C1(C=CC(=O)C=C1)CC3NCC2 (stereo unspecified)

A:
1: 4.19 µM; 2: 4.58 µM; 3: > 100 µM; 4: > 46.4 µM; 5: > 100 µM; 6: 43.3 µM; 7: > 100 µM
